TARGET: T1, monomeric CD22 (Acro Biosystems) (UniProt P20273 20-687)
T1 construct: Bought protein; also called CD22 antigen; soluble CD22 protein
T1 sequence (looked up): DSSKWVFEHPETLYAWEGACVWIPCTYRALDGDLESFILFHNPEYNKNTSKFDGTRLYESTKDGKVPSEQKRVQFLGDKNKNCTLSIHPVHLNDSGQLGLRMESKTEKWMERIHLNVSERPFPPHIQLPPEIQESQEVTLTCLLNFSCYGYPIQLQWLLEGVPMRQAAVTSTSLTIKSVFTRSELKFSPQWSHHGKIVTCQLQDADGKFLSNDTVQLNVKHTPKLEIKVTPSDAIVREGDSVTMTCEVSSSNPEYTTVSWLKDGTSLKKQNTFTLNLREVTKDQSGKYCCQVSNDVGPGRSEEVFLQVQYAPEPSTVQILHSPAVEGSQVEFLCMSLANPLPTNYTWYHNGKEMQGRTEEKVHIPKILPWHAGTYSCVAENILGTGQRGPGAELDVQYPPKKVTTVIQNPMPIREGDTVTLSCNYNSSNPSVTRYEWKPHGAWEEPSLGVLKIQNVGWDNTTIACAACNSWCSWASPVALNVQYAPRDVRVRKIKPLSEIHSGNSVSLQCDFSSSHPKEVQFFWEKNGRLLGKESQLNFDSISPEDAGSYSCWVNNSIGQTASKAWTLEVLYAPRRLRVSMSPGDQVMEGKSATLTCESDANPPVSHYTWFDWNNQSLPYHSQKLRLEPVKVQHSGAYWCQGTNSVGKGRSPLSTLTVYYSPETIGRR
TEST_SUMMARY: BLI (ForteBio Octet Red), VHH-Fc captured on anti-human IgG Fc sensor, monomeric CD22 at 250 nM
QUANTITY_MEASURED: kon (M⁻¹ s⁻¹)
Give the value in M⁻¹ s⁻¹ but do not write M⁻¹ s⁻¹ after it.

Below: 3 binders and their reported kon.
| BINDER | kon / M⁻¹ s⁻¹ |
| --- | --- |
| PROT740 (E04) VHH-Fc fusion protein (Fc fusion, VHH fused to the human IgG1 Fc domain; not shown: human IgG1 Fc domain) EVQLLESGGGLVQPGGSLRLSCAASGFTSSSYVMGWYRQAPGKEREFVSSISTGGDAYYADSVKGRFTISRDNSKNTLYLQMNSLRAEDTAVYYCAADVWYYHGGAYDYWGQGTQVTVSS | 23000 |
| PROT265 (D04) VHH-Fc fusion protein (Fc fusion, also called CD22_D04; not shown: human IgG1 Fc domain) QVQLVESGGGLVQAGGSLRLSCAASGSEFTGYPMGWFRQAPGKEREFVAGSVGIGGSTNYADSVKGRFTISRDNAKNTVYLQMNSLKPEDTAVYYCAADKDYYKPYSRYRTVIRYETWGQGTQVTVSS | 80800 |
| PROT739 (A01) VHH-Fc fusion protein (Fc fusion, VHH fused to the human IgG1 Fc domain; not shown: human IgG1 Fc domain) EVQLLESGGGLVQPGGSLRLSCAASGLTSYSYAMGWYRQAPGKEREFVSAISSGGSAYYADSVKGRFTISRDNSKNTLYLQMNSLRAEDTAVYYCAVGPYYGFRAVTEADYWGQGTQVTVSS | 106000 |

Could you now consider this next binder?
Task: For PROT810 (D04-AM-D11) VHH-Fc fusion protein (Fc fusion, I took that entry to be D04-AM-D11 on the strength of the name; also called DO4-D11-CD22 VHH; not shown: human IgG1 Fc domain) QVQLVESGGGLVQAGGSLRLSCAASGSEFTGYPMGWFRQAPGKEREFVAGSVGIGGSTNYADSVKGRFTISRDNAKNTVYLQMNSLKPEDTAVYYCAADKDYYKPYSRYRTAIRYDTWGQGTQVTVSS , what is its reported kon?
Result: 94300

From: patent US20250064934A1
